relative viability by entry:
Tested on: PC-3 [JPC-3]
Experiment: relative viability (nuclei count vs DMSO), 5 days (fraction); higher = more cells survive
Settings: first compound 1 µM

{"columns": ["compound", "relative viability"],
 "data": [
  ["CCN(CC)CCCCNc1ncc2cc(-c3cc(OC)cc(OC)c3)c(NC(=O)NC(C)(C)C)nc2n1 + Cc1cc(Nc2cc(N3CCN(C)CC3)nc(Sc3ccc(NC(=O)C4CC4)cc3)n2)n[nH]1 [Tozasertib] (partner 0.1 µM)", 0.632],
  ["CCN(CC)CCCCNc1ncc2cc(-c3cc(OC)cc(OC)c3)c(NC(=O)NC(C)(C)C)nc2n1 + O=C(c1cc(Cc2n[nH]c(=O)c3ccccc23)ccc1F)N1CCN(C(=O)C2CC2)CC1 [Olaparib] (partner 8 µM)", 1.07],
  ["CCN(CC)CCCCNc1ncc2cc(-c3cc(OC)cc(OC)c3)c(NC(=O)NC(C)(C)C)nc2n1 + C[C@]1(O)C[C@@H](c2nc(-c3ccc4ccc(-c5ccccc5)nc4c3)c3c(N)nccn32)C1 [Linsitinib] (partner 1 µM)", 0.993],
  ["CCN(CC)CCCCNc1ncc2cc(-c3cc(OC)cc(OC)c3)c(NC(=O)NC(C)(C)C)nc2n1 + NC(=O)Nc1cc(-c2cccc(F)c2)sc1C(=O)N[C@H]1CCCNC1 [AZD7762] (partner 0.2 µM)", 0.639],
  ["CCN(CC)CCCCNc1ncc2cc(-c3cc(OC)cc(OC)c3)c(NC(=O)NC(C)(C)C)nc2n1 + Cc1nc(NC(=O)N2CCC[C@H]2C(N)=O)sc1-c1ccnc(C(C)(C)C(F)(F)F)c1 [Alpelisib] (partner 2 µM)", 1.07]
]}
